Record form. Attribute: pIC50. Fill in for each entry.
assayed system: SETD2(1434-1711) (Homo sapiens, UniProt Q9BYW2)
Construct: SETD2 (1434-1711) Assay; catalogue N/A
Sequence (Q9BYW2 1434-1711): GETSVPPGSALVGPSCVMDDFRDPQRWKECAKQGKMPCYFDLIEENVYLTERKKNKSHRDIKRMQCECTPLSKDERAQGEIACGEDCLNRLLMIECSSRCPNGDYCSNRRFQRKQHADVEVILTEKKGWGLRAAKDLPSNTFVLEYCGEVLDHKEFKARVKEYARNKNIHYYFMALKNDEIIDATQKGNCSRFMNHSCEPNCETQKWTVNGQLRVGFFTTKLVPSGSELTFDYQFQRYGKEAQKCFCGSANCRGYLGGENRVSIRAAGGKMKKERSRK
protocol notes: SETD2 (1434-1711) assay
Assay type: biochemical
assay context: read-out: SETD2 (1434-1711)
To interpret pIC50, take it as minus log10 of a concentration measured in moles per litre.

Tested on SETD2(1434-1711) (Homo sapiens, UniProt Q9BYW2), the item Cc1ccc(F)c2cc(C(=O)Nc3cccc(S(C)(=O)=O)c3)[nH]c12 [compound 399] showed pIC50 equal to 5.74

Tested on SETD2(1434-1711) (Homo sapiens, UniProt Q9BYW2), the item COCCN1CCC2(CC1)CN(c1cccc(NC(=O)c3cc4c(F)ccc(C)c4[nH]3)c1)C2 [compound 109] showed pIC50 equal to 8.00

Tested on SETD2(1434-1711) (Homo sapiens, UniProt Q9BYW2), the item Cc1ccnnc1C(NC(=O)c1cc2c(F)ccc(C)c2[nH]1)C1CC1 (centres unmarked) [compound 450] showed pIC50 equal to 5.64

Tested on SETD2(1434-1711) (Homo sapiens, UniProt Q9BYW2), the item Cc1ccc(F)c2cc(C(=O)Nc3cccc(-n4cncn4)c3)[nH]c12 [compound 162] showed pIC50 equal to 7.05

Tested on SETD2(1434-1711) (Homo sapiens, UniProt Q9BYW2), the item CC(=O)N(C(C)C)C1CCN(C2CCC[C@@H](NC(=O)c3cc4c(F)ccc(C)c4[nH]3)C2)C1 (some centres unmarked) [compound 862] showed pIC50 equal to 6.40

Tested on SETD2(1434-1711) (Homo sapiens, UniProt Q9BYW2), the item CC(=O)N1C2CCC1CN(C1CCCC(NC(=O)c3cc4c(F)ccc(C)c4[nH]3)C1)C2 (centres unmarked) [compound 927] showed pIC50 equal to 5.77

Tested on SETD2(1434-1711) (Homo sapiens, UniProt Q9BYW2), the item Cc1ccc(F)c2cc(C(=O)Nc3cccc(C4COCCN4)c3)[nH]c12 (centres unmarked) [compound 307] showed pIC50 equal to 6.70
